- ASSAY SYSTEM: Fuc(a1-3)[Gal(b1-4)]Glc6S
- TEST DESCRIPTION: glycan array binding signal (z-score within array); higher = stronger binding
- RECORDED CONDITIONS: glycan notation: IUPAC condensed, linker removed
About 410 targets per protein were measured; listed, in parts, are those with the strongest signals and a random draw of the rest.
READOUT: glycan array binding signal (z-score)
Answers are plain numbers.

Note glycan array binding signal (z-score) for the binder shown: Neuropilin-1 (Homo sapiens), O14786 (protein) FKCMEALGMESGEIHSDQITASSQYSTNWSAERSRLNYPENGWTPGEDSYREWIQVDLGLLRFVTAVGTQGAISKETKKKYYVKTYKIDVSSNGEDWITIKEGNKPVLFQGNTNPTDVVVAVFPKPLITRFVRIKPATWETGISMRFEVYGCKITDYPCSGMLGMVSGLISDSQITSSNQGDRNWMPENIRLVTSRSGWALPPAPHSYINEWLQIDLGEEKIVRGIIIQGGKHRENKVFMRKFKIGYSNNGSDWKMIMDDSKRKAKSFEGNNNYDTPELRTFPALSTRFIRIYPERATHGGLGLRMELLGCEVE
0.455

Note: attention shifts to another entry.
Note glycan array binding signal (z-score) for the binder shown: GSL-I (Griffonia simplicifolia) (protein) FNLPNFWSDVKDNIIFQGDANTTAGTLQLCKTNQYGNPLQYRAGRALYSDPVQLWDNKTGSVASFYTEFTFFLKITGDGPADGLAFFLAPPDSDVKDAGAYLGLFNKSTATQPSKNQVVAVEFDTWKNTDFPEPSYRHIGINVNSIVSVATKRWEDSDIFSGKIATARISYDGSAKILTVVLSYPDGADYILSHSVDLSKNLPNPIRVGISASTGANQFLTVYVLSWRFSSALQSTSVNAAMGPEIIRTVV
-0.16
